Field: viability, T/C. Provide a value for each of the compounds that follow.
System: Hs578T complex spheroid growth, percent test/control
Assay: Anticancer human tumor Hs578T cell line growth inhibition [AhR];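 note: luminescent viability signal as a proxy for spheroid growth; spheroids exposed to agents for one week after three days of growth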
Details: second compound 0.1 µM; first compound 0.00316 µM; hits give low values
Excerpt: Multicellular complex tumor spheroid response to aryl hydrocarbon receptor antagonists in combination with a variety of drugs and investigational agents in selected tumor cell lines […] Compounds. […] If the clinical Cmax for an agent had not been determined, the highest concentration tested was 10 microM (Table 1). […]
Numbers only, in %.

Here is how some compounds turned out for viability, T/C.
CC1COCCN1c1cc(-c2ccnn2C)c2ccnc(-c3ccn[nH]3)c2n1 (configuration not stated) + CC(CO)NC(=O)c1cc(-c2ccc(Cl)cc2)nn(-c2cnn(C)c2)c1=O ... 118
CC[C@@]1(O)C(=O)OCc2c1cc1n(c2=O)Cc2cc3c(CN(C)C)c(O)ccc3nc2-1 + Cc1cncc(-c2nc(NCCc3c[nH]c4ccccc34)c3ncn(C(C)C)c3n2)c1 ... 95.3
Cn1ncnc1C1c2n[nH]c(=O)c3cc(F)cc(c23)NC1c1ccc(F)cc1 (configuration not stated) + Cc1ccccc1N=Nc1ccc(NC(=O)c2ccnn2C)c(C)c1 ... 105
Nc1ncn(C2CC(O)C(CO)O2)c(=O)n1 (configuration not stated) + Cc1ccccc1N=Nc1ccc(NC(=O)c2ccnn2C)c(C)c1 ... 103
CC1COCCN1c1cc(-c2ccnn2C)c2ccnc(-c3ccn[nH]3)c2n1 (configuration not stated) + Cc1cncc(-c2nc(NCCc3c[nH]c4ccccc34)c3ncn(C(C)C)c3n2)c1 ... 109

Consider the following items and state reported viability, T/C for each.
1. Cn1ncnc1C1c2n[nH]c(=O)c3cc(F)cc(c23)NC1c1ccc(F)cc1 (configuration not stated) + CC(CO)NC(=O)c1cc(-c2ccc(Cl)cc2)nn(-c2cnn(C)c2)c1=O
2. CC[C@@]1(O)C(=O)OCc2c1cc1n(c2=O)Cc2cc3c(CN(C)C)c(O)ccc3nc2-1 + Cc1ccccc1N=Nc1ccc(NC(=O)c2ccnn2C)c(C)c1
3. Cn1ncnc1C1c2n[nH]c(=O)c3cc(F)cc(c23)NC1c1ccc(F)cc1 (configuration not stated) + Cc1cncc(-c2nc(NCCc3c[nH]c4ccccc34)c3ncn(C(C)C)c3n2)c1
4. Nc1ncn(C2CC(O)C(CO)O2)c(=O)n1 (configuration not stated) + CC(CO)NC(=O)c1cc(-c2ccc(Cl)cc2)nn(-c2cnn(C)c2)c1=O

Marked response:
117
89.4
112
109

Consider the following items and state reported viability, T/C for each.
1. Nc1ncn(C2CC(O)C(CO)O2)c(=O)n1 (configuration not stated) + Cc1cncc(-c2nc(NCCc3c[nH]c4ccccc34)c3ncn(C(C)C)c3n2)c1
2. CC[C@@]1(O)C(=O)OCc2c1cc1n(c2=O)Cc2cc3c(CN(C)C)c(O)ccc3nc2-1 + CC(CO)NC(=O)c1cc(-c2ccc(Cl)cc2)nn(-c2cnn(C)c2)c1=O
3. CC1COCCN1c1cc(-c2ccnn2C)c2ccnc(-c3ccn[nH]3)c2n1 (configuration not stated) + Cc1ccccc1N=Nc1ccc(NC(=O)c2ccnn2C)c(C)c1

Marked response:
1. 105
2. 114
3. 107

###

Field: viability, T/C. Provide a value for each of the compounds that follow.
System: Hs578T complex spheroid growth, percent test/control
Experiment: Anticancer human tumor Hs578T cell line growth inhibition [AhR];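 note: luminescent viability signal as a proxy for spheroid growth; spheroids exposed to agents for one week after three days of growth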
Conditions: second compound 0.316 µM; first compound 3.16 µM; hits give low values
Give bare numbers, in %.

Here is how some compounds turned out for viability, T/C.
O=C(c1cc(Cc2n[nH]c(=O)c3ccccc23)ccc1F)N1CCN(C(=O)C2CC2)CC1 + Cc1ccccc1N=Nc1ccc(NC(=O)c2ccnn2C)c(C)c1 ... 88.2
Nc1ccn(C2OC(CO)C(O)C2(F)F)c(=O)n1 (stereo not drawn) + Cc1ccccc1N=Nc1ccc(NC(=O)c2ccnn2C)c(C)c1 ... 49.9
CC(C)c1c(-c2ccccc2)nc2c(C#N)c[nH]n2c1=O + Cc1cncc(-c2nc(NCCc3c[nH]c4ccccc34)c3ncn(C(C)C)c3n2)c1 ... 109

Consider the following items and state reported viability, T/C for each.
1. COc1cc(C2c3cc4c(cc3C(OC3OC5COC(C)OC5C(O)C3O)C3COC(=O)C23)OCO4)cc(OC)c1O (stereo not drawn) + Cc1cncc(-c2nc(NCCc3c[nH]c4ccccc34)c3ncn(C(C)C)c3n2)c1
2. Nc1ccccc1NC(=O)c1ccc(CNC(=O)OCc2cccnc2)cc1 + Cc1ccccc1N=Nc1ccc(NC(=O)c2ccnn2C)c(C)c1
3. NS(=O)(=O)OCC1CC(n2ccc3c(NC4CCc5ccccc54)ncnc32)CC1O (stereo not drawn) + Cc1ccccc1N=Nc1ccc(NC(=O)c2ccnn2C)c(C)c1
4. NS(=O)(=O)OCC1CC(n2ccc3c(NC4CCc5ccccc54)ncnc32)CC1O (stereo not drawn) + Cc1cncc(-c2nc(NCCc3c[nH]c4ccccc34)c3ncn(C(C)C)c3n2)c1
5. Nc1ccn(C2OC(CO)C(O)C2(F)F)c(=O)n1 (stereo not drawn) + CC(CO)NC(=O)c1cc(-c2ccc(Cl)cc2)nn(-c2cnn(C)c2)c1=O
6. COc1cc(C2c3cc4c(cc3C(OC3OC5COC(C)OC5C(O)C3O)C3COC(=O)C23)OCO4)cc(OC)c1O (stereo not drawn) + Cc1ccccc1N=Nc1ccc(NC(=O)c2ccnn2C)c(C)c1
7. CC1COCCN1c1cc(C2(S(C)(=N)=O)CC2)nc(-c2ccnc3[nH]ccc23)n1 (stereo not drawn) + CC(CO)NC(=O)c1cc(-c2ccc(Cl)cc2)nn(-c2cnn(C)c2)c1=O
8. COc1cc(Nc2ncc3c(n2)-c2ccc(Cl)cc2C(c2c(F)cccc2OC)=NC3)ccc1C(=O)O + Cc1ccccc1N=Nc1ccc(NC(=O)c2ccnn2C)c(C)c1

Marked response:
[76.9, 16.4, 36.5, 48.2, 57.3, 72.2, 85.2, 67.9]

Consider the following items and state reported viability, T/C for each.
1. NS(=O)(=O)OCC1CC(n2ccc3c(NC4CCc5ccccc54)ncnc32)CC1O (stereo not drawn) + CC(CO)NC(=O)c1cc(-c2ccc(Cl)cc2)nn(-c2cnn(C)c2)c1=O
2. COc1ccc([C@@H](O)c2cc(-c3ncnc4cc(N5CCOCC5)ccc34)c(F)cc2Cl)nn1 + CC(CO)NC(=O)c1cc(-c2ccc(Cl)cc2)nn(-c2cnn(C)c2)c1=O
3. O=C(C=Cc1cccc(S(=O)(=O)Nc2ccccc2)c1)NO + Cc1ccccc1N=Nc1ccc(NC(=O)c2ccnn2C)c(C)c1
4. CC1COCCN1c1cc(C2(S(C)(=N)=O)CC2)nc(-c2ccnc3[nH]ccc23)n1 (stereo not drawn) + Cc1ccccc1N=Nc1ccc(NC(=O)c2ccnn2C)c(C)c1
5. CC1(C)CCC(CN2CCN(c3ccc(C(=O)NS(=O)(=O)c4ccc(NCC5CCOCC5)c([N+](=O)[O-])c4)c(Oc4cnc5[nH]ccc5c4)c3)CC2)=C(c2ccc(Cl)cc2)C1 + CC(CO)NC(=O)c1cc(-c2ccc(Cl)cc2)nn(-c2cnn(C)c2)c1=O
6. COc1cc(C2c3cc4c(cc3C(OC3OC5COC(C)OC5C(O)C3O)C3COC(=O)C23)OCO4)cc(OC)c1O (stereo not drawn) + CC(CO)NC(=O)c1cc(-c2ccc(Cl)cc2)nn(-c2cnn(C)c2)c1=O
7. CC(C)c1c(-c2ccccc2)nc2c(C#N)c[nH]n2c1=O + Cc1ccccc1N=Nc1ccc(NC(=O)c2ccnn2C)c(C)c1
8. O=C(C=Cc1cccc(S(=O)(=O)Nc2ccccc2)c1)NO + CC(CO)NC(=O)c1cc(-c2ccc(Cl)cc2)nn(-c2cnn(C)c2)c1=O

Marked response:
30.1
57.8
26.9
76.9
93
73.8
112
41.8

Consider the following items and state reported viability, T/C for each.
1. COc1cc(Nc2ncc3c(n2)-c2ccc(Cl)cc2C(c2c(F)cccc2OC)=NC3)ccc1C(=O)O + Cc1cncc(-c2nc(NCCc3c[nH]c4ccccc34)c3ncn(C(C)C)c3n2)c1
2. CC1(C)CCC(CN2CCN(c3ccc(C(=O)NS(=O)(=O)c4ccc(NCC5CCOCC5)c([N+](=O)[O-])c4)c(Oc4cnc5[nH]ccc5c4)c3)CC2)=C(c2ccc(Cl)cc2)C1 + Cc1ccccc1N=Nc1ccc(NC(=O)c2ccnn2C)c(C)c1
3. Nc1ccn(C2OC(CO)C(O)C2(F)F)c(=O)n1 (stereo not drawn) + Cc1cncc(-c2nc(NCCc3c[nH]c4ccccc34)c3ncn(C(C)C)c3n2)c1
4. COc1ccc([C@@H](O)c2cc(-c3ncnc4cc(N5CCOCC5)ccc34)c(F)cc2Cl)nn1 + Cc1ccccc1N=Nc1ccc(NC(=O)c2ccnn2C)c(C)c1

Marked response:
[88.2, 95.9, 59.4, 58.4]
